# system: BRD9 (Homo sapiens)
# experiment notes: BRD9 degradation, HiBiT-BRD9 KI HEK293 (LgBiT) cells, NanoGlo Lytic Endpoint assay (Assay Protocol 1)
# Format: cell-based
# assay conditions: Table 2; BRD9 degradation, Assay Protocol 1; 6 h of treatment; read-out: Assay 1 DC50
reported property: DC50

Quickly give me recorded DC50 for COc1cc(-c2cn(C)c(=O)c3cnccc23)cc(OC)c1CN1CCN(Cc2cccc3c2CCN(C(=O)/C(C#N)=C/c2nc4ccccc4s2)C3C)CC1 (mixture of isomers) < 1.25 nM

Quickly give me recorded DC50 for COc1cccc(/C=C(\C#N)C(=O)N2CCc3c(CN4CCN(Cc5c(OC)cc(-c6cn(C)c(=O)c(C)c6C)cc5OC)CC4)cccc3C2C)n1 (mixture of isomers) 1.25 to 10 nM

Quickly give me recorded DC50 for COc1cc(-c2cn(C)c(=O)c(C)c2C)cc(OC)c1CN1CCN(Cc2cccc3c2CCN(C(=O)/C(C#N)=C/c2nccs2)C3C)CC1 (mixture of isomers) < 1.25 nM

Quickly give me recorded DC50 for COc1cc(-c2cn(C)c(=O)c3cnccc23)cc(OC)c1CN1CCN(Cc2cccc(C3CCCN3C(=O)/C(C#N)=C/c3nccs3)c2)CC1 (mixture of isomers) < 1.25 nM

Quickly give me recorded DC50 for CCCC(c1ccc(CCC(=O)N2CCN(Cc3c(OC)cc(-c4cn(C)c(=O)c(C)c4C)cc3OC)CC2)cc1)N(C)C(=O)/C(C#N)=C/c1nccs1 (mixture of isomers) 1.25 to 10 nM

====

# system: UniProtKB Q9H8M2
# experiment notes: Degradation of BRD9 (IF), immunofluorescence in MV4-11 cells, 24 hours (Assay Protocol 2)
# Type: cell-based
# Design: A suspension of MV4-11 cells (ATCC CRL-9591) was prepared; host or cells: MV4-11
# assay conditions: MV4-11, Assay protocol 2; BRD9 degradation; read-out: Dmax
Dmax by entry:

{"compound": "COc1cc(-c2cn(C)c(=O)c(C)c2C)cc(OC)c1CN1CCN(Cc2cccc3c2CCN(C(=O)/C(C#N)=C/c2ccc(C)cn2)C3C)CC1 (mixture of isomers)", "system": "UniProtKB Q9H8M2", "Dmax": "25 to 40%"}
{"compound": "COc1cc(-c2cn(C)c(=O)c(C)c2C)cc(OC)c1CN1CCN(Cc2cccc3c2CCN(C(=O)/C(C#N)=C/C2(C(F)(F)F)CCC2)C3C)C2(CC2)C1 (mixture of isomers)", "system": "UniProtKB Q9H8M2", "Dmax": "> 75%"}

Quickly give me recorded Dmax for COc1cc(-c2cn(C)c(=O)c(C)c2C)cc(OC)c1CN1CC(Cc2cccc3c2CCN(C(=O)/C(C#N)=C/C(C)(C)C)C3C)C1 (stereo not drawn) 40 to 70%

====

# system: UniProtKB Q9H8M2
# Sequence (Q9H8M2 1-597): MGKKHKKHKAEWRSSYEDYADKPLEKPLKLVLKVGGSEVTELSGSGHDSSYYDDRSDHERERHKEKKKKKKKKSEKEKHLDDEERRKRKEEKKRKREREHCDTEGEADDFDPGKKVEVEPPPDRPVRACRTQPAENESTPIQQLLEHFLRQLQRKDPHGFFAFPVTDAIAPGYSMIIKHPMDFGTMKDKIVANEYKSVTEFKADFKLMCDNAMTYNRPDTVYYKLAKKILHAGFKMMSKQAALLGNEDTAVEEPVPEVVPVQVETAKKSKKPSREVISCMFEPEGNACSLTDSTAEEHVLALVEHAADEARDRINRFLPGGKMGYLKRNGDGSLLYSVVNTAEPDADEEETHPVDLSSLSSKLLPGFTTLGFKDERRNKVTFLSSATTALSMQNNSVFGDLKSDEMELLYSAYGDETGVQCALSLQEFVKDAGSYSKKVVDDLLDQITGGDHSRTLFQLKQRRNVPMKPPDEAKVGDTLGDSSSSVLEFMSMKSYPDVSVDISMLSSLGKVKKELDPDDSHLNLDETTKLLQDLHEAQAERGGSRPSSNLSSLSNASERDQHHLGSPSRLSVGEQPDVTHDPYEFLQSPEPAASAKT
# experiment notes: BRD9 degradation, HiBiT-BRD9 KI HEK293 (LgBiT) cells, NanoGlo Lytic Endpoint assay (Assay Protocol 1)
# Assay type: cell-based
# assay conditions: Assay protocol 1; BRD9 degradation; read-out: DC50
# Description: HiBiT-BRD9 KI HEK293 (LgBiT) Cells (Promega CS3023412) were seeded at 8000 cells per well (38 μL) in sterile white bottom 384 well plates (Invitrogen 164610 or Greiner 781080) and incubated overnight at 37° C. with 5% CO2. The next day, compounds were prepared at 1000× final concentration in DMSO and diluted 1:100 in media (DMEM PAN Biotech P04-03550+10% FBS ATCC 302025). […]
reported property: DC50

Some compounds with known DC50 results, for comparison:
{"compound": "COc1cc(-c2cn(C)c(=O)c(C)c2C)cc(OC)c1CN1C[C@H](C)N(Cc2cccc3c2CCN(C(=O)/C(C#N)=C/C(C)(C)C)C3C)C[C@H]1C (mixture of isomers)", "system": "UniProtKB Q9H8M2", "reported property": "DC50", "result": "1.25 to 10 nM"}
{"compound": "CCCC(c1ccc(C(=O)N(C)CCCCCCC(=O)N2CCN(Cc3c(OC)cc(-c4cn(C)c(=O)c(C)c4C)cc3OC)CC2)cc1)N(C)C(=O)/C(C#N)=C/c1nccs1 (mixture of isomers)", "system": "UniProtKB Q9H8M2", "reported property": "DC50", "result": "25 to 1000 nM"}

Quickly give me recorded DC50 for COc1cc(-c2cn(C)c(=O)c(C)c2C)cc(OC)c1CN1CCN(CC(=O)NCCOc2ccc3c(c2)C(C)N(C(=O)/C(C#N)=C/c2nccs2)CC3)CC1 (mixture of isomers) 25 to 1000 nM

Quickly give me recorded DC50 for CCCC(c1ccc(C(=O)N(C)CCCCCCCCC(=O)N2CCN(Cc3c(OC)cc(-c4cn(C)c(=O)c(C)c4C)cc3OC)CC2)cc1)N(C)C(=O)/C(C#N)=C/c1nccs1 (mixture of isomers) 25 to 1000 nM

Quickly give me recorded DC50 for COc1cc(-c2cn(C)c(=O)c(C)c2C)cc(OC)c1CN1CCN(Cc2cccc3c2CCN(C(=O)/C(C#N)=C/C(C)(C)C)C3C)C2(CC2)C1 (mixture of isomers) < 1.25 nM

Quickly give me recorded DC50 for COc1cc(-c2cn(C)c(=O)c(C)c2C)cc(OC)c1CN(C)Cc1cccc2c1CCN(C(=O)/C(C#N)=C/c1cccc(C(F)(F)F)n1)C2C (mixture of isomers) 1.25 to 10 nM

Quickly give me recorded DC50 for COc1cc(-c2cn(C)c(=O)c(C)c2C)cc(OC)c1CN1CCN(CC(=O)NCCOc2cccc(C3CCCN3C(=O)/C(C#N)=C/c3nccs3)c2)CC1 (mixture of isomers) 25 to 1000 nM

====

Dmax at 1 µM by entry:
# system: BRD9 (Homo sapiens)
# Sequence (Q9H8M2 1-597): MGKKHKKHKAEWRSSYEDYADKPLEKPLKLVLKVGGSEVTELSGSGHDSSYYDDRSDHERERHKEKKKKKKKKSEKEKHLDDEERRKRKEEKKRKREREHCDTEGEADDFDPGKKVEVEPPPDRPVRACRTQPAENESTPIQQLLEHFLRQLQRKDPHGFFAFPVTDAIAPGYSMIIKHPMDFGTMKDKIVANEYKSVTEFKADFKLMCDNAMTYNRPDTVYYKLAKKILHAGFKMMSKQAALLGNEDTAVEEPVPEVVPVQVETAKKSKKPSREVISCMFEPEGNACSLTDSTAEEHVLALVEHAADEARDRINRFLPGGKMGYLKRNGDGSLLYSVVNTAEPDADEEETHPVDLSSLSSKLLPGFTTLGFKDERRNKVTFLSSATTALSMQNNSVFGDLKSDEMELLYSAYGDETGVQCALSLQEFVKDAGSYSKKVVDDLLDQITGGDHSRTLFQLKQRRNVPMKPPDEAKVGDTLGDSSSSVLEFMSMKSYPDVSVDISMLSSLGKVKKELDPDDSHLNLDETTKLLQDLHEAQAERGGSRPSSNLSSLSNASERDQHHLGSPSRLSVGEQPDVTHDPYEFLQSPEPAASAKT
# experiment notes: BRD9 degradation, HiBiT-BRD9 KI HEK293 (LgBiT) cells, NanoGlo Lytic Endpoint assay (Assay Protocol 1)
# Type: cell-based
# assay conditions: HEK293; Table 3; assay 1; 1 μM compound at 5 h of treatment; read-out: BRD9 Dmax (%)

Some compounds with known Dmax at 1 µM results, for comparison:
{"compound": "COc1cc(-c2cn(C)c(=O)c3cnccc23)cc(OC)c1CN(C)Cc1cccc2c1CCN(C(=O)/C(C#N)=C/c1cccc(Br)n1)C2C (mixture of isomers) [Compound A50]", "system": "BRD9 (Homo sapiens)", "Dmax at 1 µM": "> 75%"}
{"compound": "COc1cc(-c2cn(C)c(=O)c(C)c2C)cc(OC)c1CN1CCCN(Cc2cccc3c2CCN(C(=O)/C(C#N)=C/C(C)(C)C)C3C)CC1 (mixture of isomers) [Compound A72]", "system": "BRD9 (Homo sapiens)", "Dmax at 1 µM": "70 to 75%"}
{"compound": "COc1cc(-c2cn(C)c(=O)c(C)c2C)cc(OC)c1CN1CCN(Cc2cccc3c2CCN(C(=O)/C(C#N)=C/c2ncc(C)s2)C3C)CC1 (mixture of isomers) [Compound A29]", "system": "BRD9 (Homo sapiens)", "Dmax at 1 µM": "40 to 70%"}

Enter recorded Dmax at 1 µM with BRD9 (Homo sapiens) for COc1cc(-c2cc(C)c(=O)n(C)c2)cc(OC)c1CN1CCN(Cc2cccc3c2CCN(C(=O)/C(C#N)=C/C2(F)CC2)C3C)CC1 (mixture of isomers) [Compound A61] here. > 75%

Enter recorded Dmax at 1 µM with BRD9 (Homo sapiens) for COc1cc(-c2cn(C)c(=O)c(C)c2C)cc(OC)c1CN1CCN(Cc2cccc3c2CCN(C(=O)/C(C#N)=C/c2nccs2)C3C)CC1 (mixture of isomers) [Compound A4] here. 70 to 75%

Where do the numbers come from? From patent US20260092061A1.
